method: yeast display, Sf9 membrane polyspecificity reagent, FACS + sequencing; frameworks hold sequencing errors
measuredAttribute: polyreactivity (PSR sort gate)

sequenceentry=QVQLVESGGGLVQAGGSLRLICDASGRILTGNAMGWYRQAPGKERELVAAISYNGGRTYYADSVKGRFTISRDNAKNTVYLQMNSLKPEDTAVYYCNVVRRQLQTSHPYGYWGQGTQVTVSS measuredattribute="polyreactivity (PSR sort gate)" datavalue="low polyreactivity"
sequenceentry=QDQHVESGGGLVQAGGSLRLSCAASGITFNKYAMGWYRQAPGKERELVAAISFSGGSTYYADSVKGRFTISRDNAKNTVYLQMNSLKPEVTAVYYCAAVWGYVIWVDTAVYREYDYWGQGTQVTVSS measuredattribute="polyreactivity (PSR sort gate)" datavalue="high polyreactivity"
sequenceentry=QVQLVESGGGLVQAGGSLRLSCAASGFNFRYNAMGWYRQAPGKERELVAGISGGGTHYADSVKGRFTISRDNAKNTVYLQMNSLKPEDTAVYYCARRGGYRRNTNFYYWGQGTQVTVSS measuredattribute="polyreactivity (PSR sort gate)" datavalue="high polyreactivity"
sequenceentry=QVQLVESGGGLVQAGGSLRLSCAASGRTFKFYAMGWYRQAPGKERELVATITSGGSTYYADSVKGRFTISRDNAKNTVYLQMNSLKPEDTAVYYCNKRYRKPGSGWYDSWGQGTQVTVSS measuredattribute="polyreactivity (PSR sort gate)" datavalue="high polyreactivity"

List polyreactivity (PSR sort gate) for every entry below, keeping the order given.
1. QVQLVESGGGLVQAGGSLRLSCAASGRTFPTYAMGWDRQAPGKERELVAAITTSGGSTYADSVMGRFTISRDNAKNTVYLQMNSLKPEDTAVYYCATRSFYGGYYYSSGSEFDYWGQGTQVTVSS
2. QVQLVESGGGLVQAGGSLRLSCAASGRIFYWYDMGWYRQAPGKERELVAAISTRGGSTYYADSVKGRFTISRDNAKNTVYLQMNSLKPEDTAVYYCAARANPYVLKYYYWGQGTQVTVSS
3. QVQLVESGGGLVQAGGSLRLSCAASGSNFVYNAMGWYRPAPGKERELVAAITGRVGSTYYADSVKGRFTISRDNAKNTVYLQMISLKPEDTAVYYCAARSYFKWWYAMDYWGQGTQVSVSS
4. QVQLEESGGGLVQAGGSHRLSCAASGFTFIDNAMGSYRQAPGKERELVAAISISGGRTYYADSVKGRFTISRDNAKNTVYLQMNSLKPEDTAVYYCAAGKHRRDDYWGQGTQVTVSS
5. QVQLVDSGGGLVQAGGILRLSCAASGSTFRRYSMGWYRHAPGKQRELVAAISGRGGSTSYADSVKGRFTISRDNAKNTVYLQINSLKPEDTAVYYCAADDKYFYPGNGYWGQGTQVTVSS
6. QVQLVESGGGLDQAGGSLRLSCAASGRIFGRNAMGWYRQAPGKERELVAAITWSGGSTNYADSVKGRFTISRDNAKNTVYLEMNSLKPEDTAFYYCAKRYTPRPYKGICYYYWGQGTQVTVSS
7. QVQLVESGGGLVHAGGSLRLSCAASGSIFDYYALGWYRQAPGKERDLVASINSSVTGTYYADTVKGRFTISRDNAKNSVYLQMNSLKPEDTAVYYCAVKVYGRSGGYEYWGQGTQVTVSS

(A)
low polyreactivity
high polyreactivity
high polyreactivity
high polyreactivity
high polyreactivity
high polyreactivity
low polyreactivity
